biological target: P2Y purinoceptor 1 (Homo sapiens, UniProt P47900); assay: Antagonist activity at human platelet P2Y1 receptor assessed as inhibition of ADP-induced increase in cytosolic calcium level by FLUO-4 staining based flow cytometric analysis; format: functional
Sequence (P47900 whole entry): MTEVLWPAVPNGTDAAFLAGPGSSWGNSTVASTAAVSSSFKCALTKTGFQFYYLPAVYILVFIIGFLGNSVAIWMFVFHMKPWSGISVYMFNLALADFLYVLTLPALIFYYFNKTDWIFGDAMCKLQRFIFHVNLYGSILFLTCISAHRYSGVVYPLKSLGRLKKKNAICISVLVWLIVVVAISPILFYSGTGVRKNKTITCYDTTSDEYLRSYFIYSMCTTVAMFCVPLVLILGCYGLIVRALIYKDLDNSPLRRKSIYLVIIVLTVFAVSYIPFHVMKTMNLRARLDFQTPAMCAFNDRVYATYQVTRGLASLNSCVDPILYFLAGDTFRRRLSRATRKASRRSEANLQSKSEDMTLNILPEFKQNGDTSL
pIC50: −log10 of the molar value.
recordedEndpoint: pIC50

Please review the entries below; each comes with its answer.
Lab note: CSc1nc(N)c2ncn([C@@H]3O[C@H](COP(=O)(S)OP(=O)(O)C(Cl)(Cl)P(=O)(O)OP(=O)(S)OC[C@H]4O[C@@H](n5cnc6c(N)nc(SC)nc65)[C@H](O)[C@@H]4O)[C@@H](O)[C@H]3O)c2n1 (mixture of isomers) gave pIC50 of 5.99

Lab note: Nc1nc(Cl)nc2c1ncn2[C@@H]1O[C@H](COP(=O)(S)OP(=O)(O)C(Cl)P(=O)(O)OP(=O)(S)OC[C@H]2O[C@@H](n3cnc4c(N)nc(Cl)nc43)[C@H](O)[C@@H]2O)[C@@H](O)[C@H]1O (mixture of isomers) gave pIC50 of 5.13

Lab note: Nc1ncnc2c1ncn2[C@@H]1O[C@H](COP(=O)(S)OP(=O)(O)C(Cl)P(=O)(O)OP(=O)(S)OC[C@H]2O[C@@H](n3cnc4c(N)ncnc43)[C@H](O)[C@@H]2O)[C@@H](O)[C@H]1O (mixture of isomers) gave pIC50 of 4.99

[I] CSc1nc(N)c2ncn([C@@H]3O[C@H](COP(=O)(O)OP(=O)(O)C(Cl)P(=O)(O)OP(=O)(O)OC[C@H]4O[C@@H](n5cnc6c(N)nc(SC)nc65)[C@H](O)[C@@H]4O)[C@@H](O)[C@H]3O)c2n1 (some centres undefined)
[II] CSc1nc(N)c2ncn([C@@H]3O[C@H](COP(=O)(O)OP(=O)(O)OP(=O)(O)OP(=O)(O)OC[C@H]4O[C@@H](n5cnc6c(N)nc(SC)nc65)[C@H](O)[C@@H]4O)[C@@H](O)[C@H]3O)c2n1
Problem: Between the two listed entries I and II , which has its pIC50 at the higher number? Please respond with the label that marks your chosen entry.
Solution: II

[I] CCCCCSc1nc(N)c2ncn([C@@H]3O[C@H](COP(=O)(S)OP(=O)(O)C(Cl)P(=O)(O)OP(=O)(S)OC[C@H]4O[C@@H](n5cnc6c(N)nc(SCCCCC)nc65)[C@H](O)[C@@H]4O)[C@@H](O)[C@H]3O)c2n1 (mixture of isomers)
[II] CNc1nc(SC)nc2c1ncn2[C@@H]1O[C@H](COP(=O)(S)OP(=O)(O)C(Cl)P(=O)(O)OP(=O)(S)OC[C@H]2O[C@@H](n3cnc4c(NC)nc(SC)nc43)[C@H](O)[C@@H]2O)[C@@H](O)[C@H]1O (some centres undefined)
Problem: Between the two listed entries I and II , which has its pIC50 at the higher number? Please respond with the label that marks your chosen entry.
Solution: II

* * *

system: Plasma; assay: Half life in rat plasma at 50 uM measured at 1 to 4 hrs; format: ADME, cell-free
t1/2 for assorted molecules
Kindly answer with a numeric value in h, unit omitted.

Please review the entries below; each comes with its answer.
Lab note: CSc1nc(N)c2ncn([C@@H]3O[C@H](COP(=O)([S-])OP(=O)([O-])C(Cl)P(=O)([O-])OP(=O)([S-])OC[C@H]4O[C@@H](n5cnc6c(N)nc(SC)nc65)[C@H](O)[C@@H]4O)[C@@H](O)[C@H]3O)c2n1.[Na+].[Na+].[Na+].[Na+] (single isomer, unassigned; diastereomer 1) gave t1/2 of 100.5

Lab note: CSc1nc(N)c2ncn([C@@H]3O[C@H](COP(=O)([S-])OP(=O)([O-])C(Cl)P(=O)([O-])OP(=O)([S-])OC[C@H]4O[C@@H](n5cnc6c(N)nc(SC)nc65)[C@H](O)[C@@H]4O)[C@@H](O)[C@H]3O)c2n1.[Na+].[Na+].[Na+].[Na+] (single isomer, unassigned; diastereomer 3) gave t1/2 of 5.4

Lab note: CSc1nc(N)c2ncn([C@@H]3O[C@H](COP(=O)([S-])OP(=O)([O-])C(Cl)P(=O)([O-])OP(=O)([S-])OC[C@H]4O[C@@H](n5cnc6c(N)nc(SC)nc65)[C@H](O)[C@@H]4O)[C@@H](O)[C@H]3O)c2n1.[Na+].[Na+].[Na+].[Na+] (mixture of isomers) gave t1/2 of 4.73

New cases:
Lab note: CSc1nc(N)c2ncn([C@@H]3O[C@H](COP(=O)([S-])OP(=O)([O-])C(Cl)P(=O)([O-])OP(=O)([S-])OC[C@H]4O[C@@H](n5cnc6c(N)nc(SC)nc65)[C@H](O)[C@@H]4O)[C@@H](O)[C@H]3O)c2n1.[Na+].[Na+].[Na+].[Na+] (single isomer, unassigned; diastereomer 4) gave t1/2 of 1.37

Lab note: CSc1nc(N)c2ncn([C@@H]3O[C@H](COP(=O)([S-])OP(=O)([O-])C(Cl)P(=O)([O-])OP(=O)([S-])OC[C@H]4O[C@@H](n5cnc6c(N)nc(SC)nc65)[C@H](O)[C@@H]4O)[C@@H](O)[C@H]3O)c2n1.[Na+].[Na+].[Na+].[Na+] (single isomer, unassigned; diastereomer 2) gave t1/2 of 5.06
